Biological target: T1, human CXCL13 (human, UniProt O43927 23-109)
T1 construct: Recombinant protein bought from Peprotech (#300-47); In some assays native human CXCL13 from supernatant of IFN-gamma-stimulated THP-1 cells was used; this is said in the assay field; also called recombinant human CXCL13; rhuCXCL13
T1 sequence: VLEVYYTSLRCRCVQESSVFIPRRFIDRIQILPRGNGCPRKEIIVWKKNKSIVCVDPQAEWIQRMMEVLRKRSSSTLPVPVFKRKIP
Assay: SPR (Biacore), recombinant human CXCL13; printed as Affinity (Biacore), nM
Readings of pKd for the listed binders
Expect pKd as a plain number equal to -log10 of the molar concentration.

Some binders with known pKd results, for comparison:
BINDER: MAb 5080 (antibody, human IgG1, V domains shown, also called H2177/L5055) VH: QVQLQESGPGLVKPSETLSLTCTVSGFSLSTFGMGVGWIRQPPGKGLEWIAHIWWDDDRRYNPALKSRVTISKDTSKNQFSLKLSSVTAADTAVYYCARIAGYYGSRDWFAYWGQGTTVTVSS VL: DIQMTQSPSSLSASVGDRVTITCRASESVDNSGISFMHWYQQKPGKAPKLLIFRASDLESGVPSGFSGSGSRTDFTLTISSLQPEDFATYYCQQSNKDPWTFGQGTKLEIK
NUMERIC_RESULT: 7.84

BINDER: MAb 5261 (antibody, V domains shown, Humanized) VH: QVQLQESGPGLVKPSETLSLTCTVSGFSLSTFGMGVGWIRQPPGKGLEWIAHIWWDDDRRYNPALKSRVTISKDTSKNQFSLKLSSVTAADTAVYYCARIAGYYGSRDWFAYWGQGTTVTVSS VL: DIQMTQSPSSLSASVGDRVTITCRASESVDNMGISFMHWYQQKPGKAPKLLIFRASDLESGVPSRFSGSGSGTDFTLTISSLQPEDFATYYCQQSNKDPWTFGQGTKLEIK
NUMERIC_RESULT: 8.29

BINDER: MAb 1476 (antibody, V domains shown, Chimeric IgG1: 3D2 variable domains (H1609/L0293) on human gamma 1 heavy chain constant and human kappa constant; also called chimeric 3D2) VH: EVQLQESGPGILQPSQTLNLTCSFSGFSLSTFGMGVGWIRQPSGKGLEWLAHIWWDDDRRYNPALKSRLTISKETSKNQVFLKIANVDTADTATYYCTRIAGYYGSRDWFAYWGQGTTVTVSS VL: DIVLTQSPASLAVSLGQRATISCRASESVDNSGISFMHWYQQKPGQPPKLLIFRASDLESGIPARFSGSGSRTDFTLTVNPVETDDVATYFCQQSNKDPWTFGGGTKLEIK
NUMERIC_RESULT: 7.94

// moving on: another record for pKd
// pKd lookup, key: 3D2 (antibody, mouse IgG1, V domains shown, Hybridoma-produced mouse IgG1; also called mouse anti-human CXCL13 antibody 3D2; H1609/L0293) VH: EVQLQESGPGILQPSQTLNLTCSFSGFSLSTFGMGVGWIRQPSGKGLEWLAHIWWDDDRRYNPALKSRLTISKETSKNQVFLKIANVDTADTATYYCTRIAGYYGSRDWFAYWGQGTTVTVSS VL: DIVLTQSPASLAVSLGQRATISCRASESVDNSGISFMHWYQQKPGQPPKLLIFRASDLESGIPARFSGSGSRTDFTLTVNPVETDDVATYFCQQSNKDPWTFGGGTKLEIK
7.89

The reported measurements were obtained from patent US20160002325A1.
